Data credit: patent US20200369765A1

biological target: T1, Human Siglec-8 (human, UniProt Q9NYZ4 17-499); experiment: flow cytometry, CHO transfectants
T1 construct: Expressed on transfected CHO cells; also called HuSiglec-8
T1 sequence (Q9NYZ4 17-499): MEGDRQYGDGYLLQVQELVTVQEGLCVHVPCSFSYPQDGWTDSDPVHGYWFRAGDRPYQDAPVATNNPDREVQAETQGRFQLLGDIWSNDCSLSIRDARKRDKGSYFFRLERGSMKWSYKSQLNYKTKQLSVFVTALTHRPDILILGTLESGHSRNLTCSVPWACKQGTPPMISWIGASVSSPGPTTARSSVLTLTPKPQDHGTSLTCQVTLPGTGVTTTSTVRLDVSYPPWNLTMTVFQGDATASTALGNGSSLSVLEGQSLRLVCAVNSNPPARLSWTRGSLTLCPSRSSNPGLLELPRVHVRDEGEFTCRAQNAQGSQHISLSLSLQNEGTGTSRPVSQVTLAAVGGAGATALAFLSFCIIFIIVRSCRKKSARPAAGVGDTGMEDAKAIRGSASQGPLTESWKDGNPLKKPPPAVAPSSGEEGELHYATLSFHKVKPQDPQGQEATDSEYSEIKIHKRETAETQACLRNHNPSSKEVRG
Assay Metric: binding result

mAbE (antibody, human IgG1, V domains shown) VH: DVQLVESGGGLVQPGGSRKLSCAASGFTFSTFGMHWVRQAPEKGLEWVAYISSGSNAIYYADTVKGRFTISRDNPKNTLFLQMTSLRSEDTAMYYCASPGYGAWFAYWGQGTLVTVSA VL: ENVLTQSPAIMSASPGEKVTMTCRASSSVSSAYLHWYQQKSGASPKLWIYSTSNLASGVPARFSGSGSGTSYSLTISSVEAEDAATYYCQQYSAYPYTFGGGTKLEIK ... no binding
mAb1 (antibody, human IgG1, V domains shown) VH: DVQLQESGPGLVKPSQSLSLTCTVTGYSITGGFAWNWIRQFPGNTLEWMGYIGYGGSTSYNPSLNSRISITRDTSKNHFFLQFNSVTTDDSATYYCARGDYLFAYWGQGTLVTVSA VL: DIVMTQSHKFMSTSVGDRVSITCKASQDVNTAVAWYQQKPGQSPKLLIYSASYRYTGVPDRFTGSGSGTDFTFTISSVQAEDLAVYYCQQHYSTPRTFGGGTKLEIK ... no binding
